Give IC50 for every item shown.
- Tested on: RL
- procedure_summary: In vitro growth inhibition of RL B-cell lymphoma line
- Format: cell-based
- experimental_parameters: RL #1; read-out: IC50 of calicheamicin
# unit: nM | format: bare number

State its IC50 on RL: CMC-544 PROCESS CMC-544 LOADING 65 μg/mg: CMC-544 made by the CMC-544 conjugation process
0.006

Moving on to CMC-676 PROCESS CMC-544 LOADING 35 μg/mg: CMC-544 made by the CMA-676 conjugation process
0.03
